- ASSAY TEXT: Quantitative (24-hour shake flask) thermodynamic solubility of Compound 1A in organic solvents and water
- Format: physicochemical
- TEST PARAMETERS: organic solvent or mixture, thermodynamic from solid, Acetone, room temperature
METRIC: solubility at 24 h (mg/mL)
Just the number please, in mg/mL, no unit attached.

Query: Requested read-out: solubility at 24 h. Entry: CC(C)(O)CNc1nc(Nc2ccnc(C(F)(F)F)c2)nc(-c2cccc(C(F)(F)F)n2)n1 [Compound 1A]
Reply: 209

* * *

- ASSAY TEXT: physchem
- TEST PARAMETERS: water, thermodynamic from solid
METRIC: solubility at 24 h

Query: Requested read-out: solubility at 24 h. Entry: CC(C)(O)CNc1nc(Nc2ccnc(C(F)(F)F)c2)nc(-c2cccc(C(F)(F)F)n2)n1 [Compound 1A]
Reply: < 100 µg/mL

Attribution: patent US20220017489A1
